System: SF-539 CNS
measurement.description: NCI-60 one-dose screen, 48 h
conditions.used: 10 µM unless noted
Compounds without any hit were thinned out: in the full panel of roughly 83,000, 20% have a hit. Active and inactive are the calls of the source. How the source made its calls: active means growth percent below 10; inactive means the rest.
Labels: 1 (yes) for active, 0 (no) for inactive

{"compound": "Cc1ccc2c(c1)n([O-])c1cc(Cl)ccc1[n+]2=O", "group.label": "0 (no)"}
{"compound": "O=c1c2cccc3c(Nc4ccccn4)ccc(c32)c2nc3ccccc3n12", "group.label": "0 (no)"}
{"compound": "CN1CCN(Cc2ccc(NC(=O)c3[nH]ncc3Nc3ncnc4c3CCC4)cc2)CC1", "group.label": "1 (yes)"}
{"compound": "C/C=C/C(N)=O", "group.label": "0 (no)"}
{"compound": "O=C1Nc2ccccc2/C1=C/C(=N/c1nnc(-c2ccc(Cl)cc2)s1)c1ccccc1", "group.label": "0 (no)"}
{"compound": "COc1cccc(/C=C\\C(=O)c2ccccc2)c1", "group.label": "0 (no)"}
{"compound": "O=C(O)c1ccc2c(c1Sc1ccccc1)C(=O)c1ccccc1C2=O", "group.label": "0 (no)"}
{"compound": "O=C1/C(=C/c2ccc(F)cc2)CN(C(=O)CCN2CCC(=NO)CC2)C/C1=C\\c1ccc(F)cc1", "group.label": "1 (yes)"}
{"compound": "Cc1cc2c(cc1C)NC1=C(N2)OC(c2c3ccccc3cc3ccccc23)C1=O (stereo not given)", "group.label": "1 (yes)"}
{"compound": "C/C(Cc1ccc(Cl)cc1)=C(\\c1ccc(OCCN2CCCCCC2)cc1)c1ccc(OC(=O)Cc2ccccc2)cc1", "group.label": "0 (no)"}

Data provenance: PubChem BioAssay (NCI)
